# experimental system: T1, human LAG3 chimera (extracellular domain of human LAG3 and trans-membrane/cytoplasmic domain of human CD300a) … (human, UniProt P18627 23-450; Q9UGN4 181-299, limits assumed)
# T1 sequence (looked up): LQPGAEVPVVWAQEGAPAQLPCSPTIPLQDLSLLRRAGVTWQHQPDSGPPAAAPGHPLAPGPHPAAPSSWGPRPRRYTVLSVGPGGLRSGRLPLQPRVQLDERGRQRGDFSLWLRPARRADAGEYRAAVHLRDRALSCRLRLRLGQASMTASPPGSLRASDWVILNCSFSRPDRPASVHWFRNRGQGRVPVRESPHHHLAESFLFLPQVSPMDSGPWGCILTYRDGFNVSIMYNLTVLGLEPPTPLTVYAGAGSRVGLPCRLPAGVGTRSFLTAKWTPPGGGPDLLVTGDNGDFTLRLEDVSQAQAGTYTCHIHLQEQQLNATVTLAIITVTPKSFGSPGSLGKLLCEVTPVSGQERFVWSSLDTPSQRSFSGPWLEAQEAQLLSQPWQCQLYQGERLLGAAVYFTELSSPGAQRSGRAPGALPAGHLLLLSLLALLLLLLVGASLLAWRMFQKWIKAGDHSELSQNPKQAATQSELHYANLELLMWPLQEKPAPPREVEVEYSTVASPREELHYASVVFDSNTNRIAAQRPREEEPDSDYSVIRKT
# test protocol: cell-based or functional assay
Property: EC50, AP1-Luc signaling, peptide mode; scope: individual binders
The reply should contain only the number, in nM.

Lookup: For the binder H4sH15479P (antibody, V domains shown) VH: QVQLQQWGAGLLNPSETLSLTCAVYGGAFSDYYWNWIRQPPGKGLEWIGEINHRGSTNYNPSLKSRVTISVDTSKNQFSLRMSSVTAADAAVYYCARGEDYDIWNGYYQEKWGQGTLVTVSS VL: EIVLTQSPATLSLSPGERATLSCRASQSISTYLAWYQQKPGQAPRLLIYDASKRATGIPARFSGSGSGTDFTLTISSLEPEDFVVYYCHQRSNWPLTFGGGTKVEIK , report EC50, AP1-Luc signaling, peptide mode.
Found: 0.135

***
Lookup: Please indicate EC50, AP1-Luc signaling, peptide mode recorded for H4H14813N (antibody, human IgG4, V domains shown, H4H = human IgG4 Fc with S108P hinge mutation) VH: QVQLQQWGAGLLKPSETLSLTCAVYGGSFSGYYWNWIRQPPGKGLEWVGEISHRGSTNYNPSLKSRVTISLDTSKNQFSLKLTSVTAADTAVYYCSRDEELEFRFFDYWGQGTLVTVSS VL: EIVLTQSPATLSLSPGERATLSCRASQSVSSYLAWYQQKPGQAPRLLVYGASNRATGIPARFSGSGSGTDFTLTISSLEPEDFAFYYCQQRSNWPLTFGGGTKVEIK
Found: 1.01

Lookup: Output measured EC50, AP1-Luc signaling, peptide mode for this item: H4H15483P (antibody, human IgG4, V domains shown, H4H = human IgG4 Fc with S108P hinge mutation) VH: QVQLQQWGAGLLPPSETLSLICAVYGGSFSGYYWSWIRQPPGKGLEWIGEINHRGSTNYNPSLKSRATISVDTSKNQFSLKLSSVTAADTAVYYCSRGEDYYDSSGYSYYFDYWGQGTLVTVSS VL: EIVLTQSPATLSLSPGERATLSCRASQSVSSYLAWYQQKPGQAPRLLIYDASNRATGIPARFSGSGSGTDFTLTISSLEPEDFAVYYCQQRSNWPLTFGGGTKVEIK
Found: 2.54

Lookup: Specify measured EC50, AP1-Luc signaling, peptide mode for H4H17823P (antibody, human IgG4, V domains shown, H4H = human IgG4 Fc with S108P hinge mutation) VH: EVQLLESGGGLVQPGGSLRLSCAASGFTFRSYAMSWVRQAPGKGLEWVSVISGGGGRTYYTDSVKGRFTISRDNSKSMLYLQMNSLRAEDTAIYYCAKERVTGIDHYYYGVDVWGQGTTVTVSS VL: DIQMTQSPSSLSASVGDRVTITCRASQSISSYLNWYQQKPGKAPKLLIYATSSLQSGVPSRFSGSASGTDFTLAISSLQPEDFATYYCQQSYTTPLTFGGGTKVEIK .
Found: 0.688
